# Kd per record follows
target: Bromodomain-containing protein 4 (Homo sapiens); assay: Inhibition of recombinant human BRD4-1 (44 to 168 residues) expressed in bacterial expression system by bromoscan assay
Please respond with the number in nM and leave the unit unwritten.

Some solved entries appear below for comparison.
Cc1cnc(Nc2ccc(C(=O)NC3CCN(C(=O)COCCOCCOCC(=O)N4CCC(NC(=O)c5ccc(Nc6ncc(C)c(Nc7ccc(Cl)c(NS(=O)(=O)C(C)(C)C)c7)n6)cc5F)CC4)CC3)c(F)c2)nc1Nc1ccc(Cl)c(NS(=O)(=O)C(C)(C)C)c1
28
Cc1cnc(Nc2ccc(C(=O)NC3CCNCC3)c(F)c2)nc1Nc1cc(NS(=O)(=O)C(C)(C)C)cc(C(=O)NCCOCCOCCOCCC(=O)N2CCC(NC(=O)c3ccc(Nc4ncc(C)c(Nc5ccc(Cl)c(NS(=O)(=O)C(C)(C)C)c5)n4)cc3F)CC2)c1
6

Lab note: next compound to report on.
IN: Item CCS(=O)(=O)Nc1ccc(OCCOCCOCCOCCOc2ccc(NS(=O)(=O)CC)cc2-c2cn(C)c(=O)c3ccccc23)c(-c2cn(C)c(=O)c3ccccc23)c1 : provide Kd
OUT: 0.095

###

target: Bromodomain testis-specific protein (Homo sapiens, UniProt Q58F21); assay: Inhibition of recombinant human BRDT-2 (250 to 382 residues) expressed in bacterial expression system by bromoscan assay
# pKd per record follows
The meaning of pKd here: minus log10 of the concentration in molar units.

IN: Item CCS(=O)(=O)Nc1ccc(OCCOCCOCCOCCOc2ccc(NS(=O)(=O)CC)cc2-c2cn(C)c(=O)c3ccccc23)c(-c2cn(C)c(=O)c3ccccc23)c1 : provide pKd
OUT: 8.26

###

molecular target: Bromodomain testis-specific protein (Homo sapiens, UniProt Q58F21); experiment: Inhibition of recombinant human BRDT-2 (250 to 382 residues) expressed in bacterial expression system by bromoscan assay
pKd: −log10 of the molar value.
Decision: pKd compared against 8; not below it gives class 1, below it gives class 0.

Would you please look over these solved cases?
Cc1cnc(Nc2ccc(C(=O)NC3CCNCC3)c(F)c2)nc1Nc1cc(NS(=O)(=O)C(C)(C)C)cc(C(=O)NCCOCCOCCOCCC(=O)N2CCC(NC(=O)c3ccc(Nc4ncc(C)c(Nc5ccc(Cl)c(NS(=O)(=O)C(C)(C)C)c5)n4)cc3F)CC2)c1
class 1
Cc1cnc(Nc2ccc(C(=O)NC3CCN(C)CC3)c(F)c2)nc1Nc1ccc(Cl)c(NS(=O)(=O)C(C)(C)C)c1
class 0
Cc1cnc(Nc2ccc(C(=O)NC3CCN(C(=O)CCOCCOCCOCCOCCC(=O)N4CCC(NC(=O)c5ccc(Nc6ncc(C)c(Nc7ccc(Cl)c(NS(=O)(=O)C(C)(C)C)c7)n6)cc5F)CC4)CC3)c(F)c2)nc1Nc1ccc(Cl)c(NS(=O)(=O)C(C)(C)C)c1
class 1
Cc1cnc(Nc2ccc(C(=O)NC3CCN(C(=O)COCCOCC(=O)N4CCC(NC(=O)c5ccc(Nc6ncc(C)c(Nc7ccc(Cl)c(NS(=O)(=O)C(C)(C)C)c7)n6)cc5F)CC4)CC3)c(F)c2)nc1Nc1ccc(Cl)c(NS(=O)(=O)C(C)(C)C)c1
class 1

Please find the next molecule below.
IN: Threshold query (pKd >= 8) on Cc1cnc(Nc2ccc(C(=O)NC3CCN(C(=O)CCOCCOCCOCCOCCOCCC(=O)N4CCC(NC(=O)c5ccc(Nc6ncc(C)c(Nc7ccc(Cl)c(NS(=O)(=O)C(C)(C)C)c7)n6)cc5F)CC4)CC3)c(F)c2)nc1Nc1ccc(Cl)c(NS(=O)(=O)C(C)(C)C)c1
OUT: class 1
